The measurements presented in this section are drawn from ChEMBL document CHEMBL5038597.

system: THP-1; assay: Cytotoxicity against human THP-1 monocytes assessed as LDH release at 0.001 to 1000 nM incubated for 24 hrs in absence of LPS by LDH assay; assay type: toxicity, cell-based; settings: thp-1, 24 h, 1 µM, dose 0.001-1000 nM
reported endpoint: Activity

// solved cases for Activity follow
{"smiles string": "CCCCC[C@@H](O)c1nc2ccccc2nc1/C=C/[C@H]1OC(C)(C)O[C@H]1CCCC(=O)OC", "Activity": "Toxic"}
{"smiles string": "CCCCCCC[C@H](O)c1nc2ccccc2nc1/C=C/[C@@H](O)[C@@H](O)CCCC(=O)OC", "Activity": "Non-Toxic"}
{"smiles string": "CCCCC[C@H](O)c1nc2ccccc2nc1/C=C/[C@H]1OC(C)(C)O[C@H]1CCCC(=O)OC", "Activity": "Toxic"}
{"smiles string": "CCCCC[C@@H](O)c1nc2ccccc2nc1/C=C/[C@@H](O)[C@@H](O)CCCC(=O)OC", "Activity": "Non-Toxic"}

Lookup: Need Activity, item CCC[C@@H](O)c1nc2ccccc2nc1/C=C/[C@@H](O)[C@@H](O)CCCC(=O)OC
Found: Non-Toxic
